Field: pKd. Provide a value for each of the binders that follow.
target: His-DciA R106A (UniProt A0A0H3C5R2 1-179, R106A); experiment: EMSA; 50 mM K-glutamate; EMSA: 20 mM Tris-HCl pH 7.5, 10 mM Mg acetate, 50 or 150 mM K-glutamate, 0.1 mg/ml BSA, 10% glycerol, 2 mM ATP, 12.5 nM DNA, 5 min on ice; M13 pull-down: Tris pH 7.5, 10 mM Mg acetate, 50 mM K-glutamate, 0.1 mM ATP, 0.1 mg/ml BSA, 30 C; conditions: protein: recombinant; tags: N-terminal His6; label: 5'-FAM
Sequence (A0A0H3C5R2 entry or part of it R106A | R106A R106A): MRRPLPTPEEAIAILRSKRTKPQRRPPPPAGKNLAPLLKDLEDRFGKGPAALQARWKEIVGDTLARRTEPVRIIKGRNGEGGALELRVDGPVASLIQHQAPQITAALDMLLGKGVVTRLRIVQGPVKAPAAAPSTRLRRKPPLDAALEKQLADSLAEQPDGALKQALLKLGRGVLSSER
One number for each entry, as −log10 of the molar value.

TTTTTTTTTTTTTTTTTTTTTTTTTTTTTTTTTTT (ssDNA) [35-mer oligo 2201] = 7.45

// field: pKd; key: 80-mer oligo 1790 (ssDNA) DNA: TCCTTGTTATCCACAGGGCAGTTTTTTTTTTTTTTTTTTTTTTTTTTTTTTTTTTTTTTTTGTGCGATATAGTTCTCCGA ; value = 6.82
